Hey, just so you know, these numbers are from patent US9624175B2.

system: IDH1-R132H recombinant protein (Homo sapiens (Human), UniProt O75874, R132H)
Sequence (O75874 whole entry R132H): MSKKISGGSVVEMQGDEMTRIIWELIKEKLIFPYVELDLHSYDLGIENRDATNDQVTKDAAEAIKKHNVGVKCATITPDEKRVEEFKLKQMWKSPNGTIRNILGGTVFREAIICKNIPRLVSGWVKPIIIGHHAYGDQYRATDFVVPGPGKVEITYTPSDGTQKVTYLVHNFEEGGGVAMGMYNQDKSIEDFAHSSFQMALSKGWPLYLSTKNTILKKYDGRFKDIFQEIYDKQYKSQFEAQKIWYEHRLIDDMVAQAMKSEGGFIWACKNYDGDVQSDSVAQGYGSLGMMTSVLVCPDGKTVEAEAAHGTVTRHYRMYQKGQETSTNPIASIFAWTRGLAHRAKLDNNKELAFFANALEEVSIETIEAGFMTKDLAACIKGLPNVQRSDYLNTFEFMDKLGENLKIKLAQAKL
experimental protocol: IDH1-R132H enzymatic assay (NADPH consumption, diaphorase/resazurin readout)
measurement parameters: inhibition of NADPH consumption, 30 nM IDH1-R132H; read-out: Enzyme IDH1 R132H IC50
Listed next: entries and their corresponding IC50.

{"compound": "O=c1[nH]c2ccc(Cl)cc2cc1CNc1ccc2[nH]c(C(F)(F)F)nc2c1 [Compound I-28]", "IC50": "> 10000 nM"}
{"compound": "Cc1cc2cc(CNc3ccc4cn[nH]c4c3)c(=O)[nH]c2cc1C [Compound I-31]", "IC50": "> 10000 nM"}
{"compound": "CN1C(=O)COc2cc(NCc3cc4cc(Cl)ccc4[nH]c3=O)ccc21 [Compound I-10]", "IC50": "1000 to 10000 nM"}
{"compound": "O=c1[nH]c2cc(NCc3cc4cc(Cl)ccc4[nH]c3=O)ccc2o1 [Compound I-3]", "IC50": "100 to 1000 nM"}
{"compound": "CC(=O)N1CCOc2c1ccnc2N[C@@H](C)c1cc2cc(Cl)ccc2[nH]c1=O [Compound I-44]", "IC50": "1000 to 10000 nM"}
{"compound": "O=c1ccc2cc(NCc3cc4cc(Cl)ccc4[nH]c3=O)ccc2o1 [Compound I-4]", "IC50": "100 to 1000 nM"}
{"compound": "COc1cc2[nH]c(=O)c(C(C)Nc3ncc4c(n3)N(C)C(=O)OC4)cc2cc1Cl (racemic) [Compound I-50]", "IC50": "< 100 nM"}
{"compound": "O=c1[nH]c2ccc(Cl)cc2cc1CNc1ccc2[nH]cnc2c1 [Compound I-24]", "IC50": "> 10000 nM"}

====

molecules and their reported pIC50
system: IDH1-R132C recombinant protein (Homo sapiens (Human), UniProt O75874, R132C)
Sequence (O75874 whole entry R132C): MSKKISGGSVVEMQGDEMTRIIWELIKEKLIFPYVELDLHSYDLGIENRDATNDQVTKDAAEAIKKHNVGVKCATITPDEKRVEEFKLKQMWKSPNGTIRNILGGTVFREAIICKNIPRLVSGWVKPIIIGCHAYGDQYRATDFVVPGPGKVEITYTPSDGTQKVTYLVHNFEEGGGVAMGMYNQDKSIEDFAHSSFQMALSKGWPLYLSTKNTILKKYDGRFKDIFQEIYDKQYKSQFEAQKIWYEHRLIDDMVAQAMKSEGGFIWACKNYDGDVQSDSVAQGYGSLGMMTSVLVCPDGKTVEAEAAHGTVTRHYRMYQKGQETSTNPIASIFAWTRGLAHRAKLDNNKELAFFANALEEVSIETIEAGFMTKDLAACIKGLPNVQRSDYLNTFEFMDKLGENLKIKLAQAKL
experimental protocol: IDH1-R132C enzymatic assay (NADPH consumption, diaphorase/resazurin readout)
Type: biochemical
measurement parameters: inhibition of NADPH consumption, 10 nM IDH1-R132C; read-out: Enzyme IDH1 R132C IC50
pIC50: −log10 of the molar value.

{"molecule": "C[C@H](Nc1ncc2c(n1)NC(=O)CC2)c1cc2cc(Cl)ccc2[nH]c1=O [Compound I-62]", "system": "IDH1-R132C recombinant protein (Homo sapiens (Human), UniProt O75874, R132C)", "pIC50": "5.00 to 6.00"}
{"molecule": "O=c1[nH]c2ccc(Cl)cc2cc1CNc1cccc2ocnc12 [Compound I-1]", "system": "IDH1-R132C recombinant protein (Homo sapiens (Human), UniProt O75874, R132C)", "pIC50": "6.00 to 7.00"}
{"molecule": "C[C@H](Nc1ncc2[nH]c(=O)n(C)c2n1)c1cc2cc(Cl)ccc2[nH]c1=O [Compound I-58]", "system": "IDH1-R132C recombinant protein (Homo sapiens (Human), UniProt O75874, R132C)", "pIC50": "5.00 to 6.00"}
{"molecule": "C[C@H](Nc1ncc2[nH]c(=O)[nH]c2n1)c1cc2cc(Cl)ccc2[nH]c1=O [Compound I-59]", "system": "IDH1-R132C recombinant protein (Homo sapiens (Human), UniProt O75874, R132C)", "pIC50": "5.00 to 6.00"}
{"molecule": "CC(=O)N1CCc2c1ccnc2N[C@@H](C)c1cc2cc(Cl)ccc2[nH]c1=O [Compound I-42]", "system": "IDH1-R132C recombinant protein (Homo sapiens (Human), UniProt O75874, R132C)", "pIC50": "5.00 to 6.00"}
{"molecule": "C[C@H](Nc1ncc2cn[nH]c2n1)c1cc2cc(Cl)ccc2[nH]c1=O [Compound I-45]", "system": "IDH1-R132C recombinant protein (Homo sapiens (Human), UniProt O75874, R132C)", "pIC50": "5.00 to 6.00"}
{"molecule": "C[C@H](Nc1ncc2c(n1)NC(=O)C2)c1cc2cc(Cl)ccc2[nH]c1=O [Compound I-60]", "system": "IDH1-R132C recombinant protein (Homo sapiens (Human), UniProt O75874, R132C)", "pIC50": "5.00 to 6.00"}
{"molecule": "CC(C)CN1C(=O)OCc2cnc(N[C@@H](C)c3cc4cc(Cl)ccc4[nH]c3=O)nc21 [Compound I-46]", "system": "IDH1-R132C recombinant protein (Homo sapiens (Human), UniProt O75874, R132C)", "pIC50": "> 7.00"}
